- Tested system: recombinant human XIAP-BIR3 protein (Homo sapiens, UniProt P98170)
- Construct: recombinant human XIAP-BIR3 protein; purchased Reaction biology APT-11-374
- Sequence (P98170 241-356 limits assumed): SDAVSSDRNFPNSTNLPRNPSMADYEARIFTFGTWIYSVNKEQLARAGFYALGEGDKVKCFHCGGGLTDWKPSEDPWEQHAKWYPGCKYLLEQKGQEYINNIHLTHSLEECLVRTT
- Assay explanation: Recombinant human XIAP-BIR3 biochemical assay (HTRF, peptide displacement)
- Experimental conditions: 3.7 nM XIAP-BIR3, 7.6 nM AbuRPF-K(5-Fam)-NH2 peptide, read-out: Protein binding IC50 (nM) XIAP
Readout: IC50 (nM)

// below: answered molecules
>  <Input smiles>
C[C@@H]1CN(CC(=O)N2c3cc(Cc4ccc(F)cc4F)c(C(N)=O)nc3OC[C@@H]2C)[C@@H](CN2[C@H](C)COC[C@H]2C)CN1

>  <IC50 / nM>
7.2

$$$$
>  <Input smiles>
C[C@@H]1CN(CC(=O)N2c3cc(Cc4ccc(F)cc4)c(C(=O)NC[C@@H]4CCCO4)nc3OC[C@@H]2C)[C@@H](CN2[C@H](C)COC[C@H]2C)CN1

>  <IC50 / nM>
4.6

$$$$
>  <Input smiles>
C[C@@H]1CN(CC(=O)N2c3cc(Cc4ccc(F)cc4)c(C(=O)NCC4CCOCC4)nc3OC[C@@H]2C)[C@@H](CN2[C@H](C)COC[C@H]2C)CN1

>  <IC50 / nM>
2.6

$$$$
>  <Input smiles>
C[C@@H]1CN(CC(=O)N2CCOc3nc(O)c(Cc4ccc(F)cc4)cc32)[C@@H](CN2CCOC[C@H]2C)CN1

>  <IC50 / nM>
10

$$$$

(I) C[C@@H]1CN(CC(=O)N2c3cc(Cc4ccc(F)cc4)c(C(N)=O)nc3OC[C@@H]2C)[C@@H](CN2CCOCC2(C)C)CN1
(II) C[C@@H]1CN(CC(=O)N2c3cc(Cc4ccc(F)cc4)cnc3OC[C@@H]2c2ccccc2)[C@@H](CN2CCOC[C@H]2C)CN1
Task: Min IC50? I | II // output: label of the selected item
Output: II
(II: 8.5 nM, I: 14 nM)

====

- Tested system: recombinant human XIAP-BIR3 protein (Homo sapiens, UniProt P98170)
- Construct: recombinant human XIAP-BIR3 protein; purchased Reaction biology APT-11-374
- Assay explanation: Recombinant human XIAP-BIR3 biochemical assay (HTRF, peptide displacement)
- Experimental conditions: 3.7 nM XIAP-BIR3, 7.6 nM AbuRPF-K(5-Fam)-NH2 peptide, read-out: Protein binding IC50 (nM) XIAP
Readout: IC50 (nM)

// below: answered compounds
>  <Compound>
C[C@@H]1CN(CC(=O)N2c3cc(Cc4ccc(F)cc4)c(CN4CCOCC4)nc3OC[C@@H]2C)[C@@H](CN2[C@H](C)COC[C@H]2C)CN1

>  <Recorded result>
8.7

$$$$
>  <Compound>
C[C@@H]1CN(CC(=O)N2c3cc(Cc4ccc(F)cc4)c(C(=O)N4CC[C@H](F)C4)nc3OC[C@@H]2C)[C@@H](CN2[C@H](C)COC[C@H]2C)CN1

>  <Recorded result>
4.2

$$$$
>  <Compound>
C[C@@H]1CN(CC(=O)N2c3cc(Cc4ccc(F)cc4)c(C(=O)N4CCCCC4)nc3OC[C@@H]2C)[C@@H](CN2[C@H](C)COC[C@H]2C)CN1

>  <Recorded result>
5.7

$$$$

(1) COCCNC(=O)c1nc2c(cc1Cc1ccc(F)cc1)N(C(=O)CN1C[C@@H](C)NC[C@@H]1CN1[C@H](C)COC[C@H]1C)[C@@H](C)CO2
(2) C[C@@H]1CN(CC(=O)N2c3cc(Cc4ccc(F)cc4)c(CO)nc3OC[C@@H]2C)[C@@H](CN2CCOC[C@@H]2C2CC2)CN1 [Example 84B]
(3) C[C@@H]1CN(CC(=O)N2CC(C)(C)Oc3nc(Br)c(Cc4ccc(F)cc4)cc32)[C@@H](CN2CCOC[C@H]2C)CN1
Task: # rank_down: sort by IC50, max first Your reply should list the labels following the order given in the request.
Output: 3, 2, 1
(3: 561 nM, 2: 46 nM, 1: 5.9 nM)

====

- Tested system: recombinant human cIAP1-BIR3 protein (Homo sapiens, UniProt Q13490)
- Construct: recombinant human cIAP1-BIR3 protein; purchased Reaction biology APT-11-370
- Sequence (Q13490 253-363 limits assumed): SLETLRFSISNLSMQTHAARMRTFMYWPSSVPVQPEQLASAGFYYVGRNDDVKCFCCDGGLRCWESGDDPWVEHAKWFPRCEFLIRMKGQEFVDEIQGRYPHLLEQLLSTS
- Assay explanation: Recombinant human c-IAP1-BIR3 biochemical assay (HTRF, peptide displacement)
- Experimental conditions: 1.2 nM cIAP1-BIR3, 3 nM AbuRPF-K(5-Fam)-NH2 peptide, read-out: Protein binding IC50 (nM) c-IAP1
Readout: IC50 (nM)

// below: answered compounds
>  <Compound>
C[C@@H]1CN(CC(=O)N2c3cc(Cc4ccc(F)cc4)c(C(=O)N4CCOCC4)nc3OC[C@@H]2C)[C@@H](CN2[C@H](C)COC[C@H]2C)CN1 [Example 72]

>  <Tested system>
recombinant human cIAP1-BIR3 protein (Homo sapiens, UniProt Q13490)

>  <IC50 (nM)>
0.35

$$$$
>  <Compound>
C[C@@H]1CN(CC(=O)N2c3cc(Cc4ccc(F)cc4)c(CO)nc3OC[C@@H]2C)[C@@H](CN2[C@H](C)COC[C@H]2C)CN1 [Compound 24]

>  <Tested system>
recombinant human cIAP1-BIR3 protein (Homo sapiens, UniProt Q13490)

>  <IC50 (nM)>
0.15

$$$$
>  <Compound>
CCOC[C@H]1COc2ncc(Cc3ccc(F)cc3)cc2N1C(=O)CN1C[C@@H](C)NC[C@@H]1CN1[C@H](C)COC[C@H]1C [Compound 36]

>  <Tested system>
recombinant human cIAP1-BIR3 protein (Homo sapiens, UniProt Q13490)

>  <IC50 (nM)>
0.42

$$$$

(A) C[C@@H]1CN(CC(=O)N2c3cc(Cc4ccc(F)cc4)c(CO)nc3OC[C@@H]2C)[C@@H](CN2CCOCC2(C)C)CN1 [Compound 48]
(B) CC(=O)Nc1nc2c(cc1Cc1ccc(F)cc1)N(C(=O)CN1C[C@@H](C)NC[C@@H]1CN1[C@H](C)COC[C@H]1C)[C@@H](C)CO2 [Compound 116]
Task: Endpoint returns whichever of A and B has the numerically higher IC50. // output: label of the selected item
Output: A

(I) CC(C)[C@H]1COc2ncc(Cc3ccc(F)cc3)cc2N1C(=O)CN1C[C@@H](C)NC[C@@H]1CN1CCOC[C@H]1C [Compound 47]
(II) C[C@@H]1CN(CC(=O)N2c3cc(Cc4ccc(F)cc4)cnc3OC[C@@H]2c2ccccc2)[C@@H](CN2CCOC[C@H]2C)CN1 [Compound 45]
(III) C[C@@H]1CN(CC(=O)N2c3cc(Cc4ccc(F)cc4)c(NS(=O)(=O)C4CC4)nc3OC[C@@H]2C)[C@@H](CN2[C@H](C)COC[C@H]2C)CN1 [Compound 123]
(IV) COC[C@H]1COc2nc(CO)c(Cc3ccc(F)cc3)cc2N1C(=O)CN1C[C@@H](C)NC[C@@H]1CN1CCOC[C@H]1C [Compound 57]
Task: # rank_down: sort by IC50, max first Your reply should list the labels following the order given in the request.
Output: IV, I, II, III
(IV: 1.2 nM, I: 0.57 nM, II: 0.34 nM, III: 0.2 nM)

(a) C[C@@H]1CN(CC(=O)N2c3cc(Cc4ccc(F)cc4)c(C(=O)NC(C)(C)C)nc3OC[C@@H]2C)[C@@H](CN2[C@H](C)COC[C@H]2C)CN1 [Compound 120]
(b) C[C@@H]1CN(CC(=O)N2c3cc(Cc4ccc(F)cc4)c(CO)nc3OC[C@@H]2C)[C@@H](CN2CCOC[C@@H]2C2CC2)CN1 [Example 84B]
Task: Min IC50? a | b // output: label of the selected item
Output: a

====

- Tested system: recombinant human cIAP2-BIR3 protein (Homo sapiens)
- Construct: recombinant human cIAP2-BIR3 protein; purchased Reaction biology APT-11-372
- Sequence (Q13489 238-349 limits assumed): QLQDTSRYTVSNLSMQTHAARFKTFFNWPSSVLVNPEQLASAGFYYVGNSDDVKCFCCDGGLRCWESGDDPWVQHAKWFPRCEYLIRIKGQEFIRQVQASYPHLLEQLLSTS
- Assay explanation: Recombinant human c-IAP2-BIR3 biochemical assay (HTRF, peptide displacement)
- Experimental conditions: 3.7 nM cIAP2-BIR3, 3.7 nM AbuRPF-K(5-Fam)-NH2 peptide, read-out: Protein binding IC50 (nM) c-IAP2
Readout: IC50 (nM)

>  <Compound>
CCS(=O)(=O)Nc1nc2c(cc1Cc1ccc(F)cc1)N(C(=O)CN1C[C@@H](C)NC[C@@H]1CN1[C@H](C)COC[C@H]1C)[C@@H](C)CO2 [Compound 122]

>  <Tested system>
recombinant human cIAP2-BIR3 protein (Homo sapiens)

>  <IC50, nM>
0.29

$$$$

(1) COCCNc1nc2c(cc1Cc1ccc(F)cc1)N(C(=O)CN1C[C@@H](C)NC[C@@H]1CN1[C@H](C)COC[C@H]1C)[C@@H](C)CO2 [Compound 108]
(2) CC(C)NC(=O)c1nc2c(cc1Cc1ccc(F)cc1)N(C(=O)CN1C[C@@H](C)NC[C@@H]1CN1[C@H](C)COC[C@H]1C)[C@@H](C)CO2 [Example 69]
Task: Endpoint returns whichever of 1 and 2 has the numerically higher IC50. // output: label of the selected item
Output: 1
